Tested on: Expi293 cells transfected with His-Halotag
Test: Library cell penetration assay, cell crash method (Example 6)
Format: in vitro ADME, human
Details: Mass Shifted Peptide Signal in Cells divided by Theoretical Max Signal per replicate pair, averaged
Experimental: Animal cells (e.g., Expi293 cells or human HEK 293 cells) were seeded in tissue culture plates and cultured in Opti-MEM media. The cells were set in PETG flasks at a concentration of 6×10^5 cells/mL and a volume of 30 mL. The cell viability was checked to be above 90-93%. The flasks were placed in a shaking incubator at 300 rpm in 8% CO2. After 24 hours of incubation, for each flask, one 1.5-mL Lo-bind tube and one 2-mL Lo-Bind tube were prepared. […]
measurement.kind: Cell Penetration Score
Just the number, please.

Field: example entries. Status: answers known.
| compound | test.system | Cell Penetration Score |
| --- | --- | --- |
| CC(C)C[C@H](NC(=O)CCC(=O)NCCOCCOCCCCCCCl)C(=O)N[C@H](C(=O)N[C@@H](Cc1ccccc1)C(=O)N[C@]1(C)CCCCCCC=CCCC[C@@](C)(C(=O)N[C@@H](CO)C(=O)N[C@@H](C)C(=O)N[C@@H](C)C(N)=O)NC(=O)[C@H](CC2CCC2)NC(=O)[C@H](CCC(N)=O)NC(=O)[C@H](C)NC(=O)[C@H](Cc2c[nH]c3ccccc23)NC(=O)[C@H](Cc2ccc(O)cc2)NC(=O)[C@H](C)NC1=O)[C@@H](C)O | Expi293 cells transfected with His-Halotag | 475 |
| CC(C)C[C@H](NC(=O)CCC(=O)NCCOCCOCCCCCCCl)C(=O)N[C@H](C(=O)N[C@@H](Cc1ccccc1)C(=O)N[C@]1(C)CCCCCCC=CCCC[C@@](C)(C(=O)N[C@@H](CO)C(=O)N[C@@H](C)C(=O)N[C@@H](C)C(N)=O)NC(=O)[C@H](CC2CCC2)NC(=O)[C@H](C)NC(=O)[C@H](C)NC(=O)[C@H](Cc2c[nH]c3ccccc23)NC(=O)[C@H](Cc2ccc(O)cc2)NC(=O)[C@H](CCC(=O)O)NC1=O)[C@@H](C)O | Expi293 cells transfected with His-Halotag | 1188 |
| CNC(=O)[C@H](C)NC(=O)[C@H](C)NC(=O)[C@H](CO)NC(=O)[C@]1(C)CCCC=CCCCCCC[C@@](C)(NC(=O)[C@H](Cc2ccccc2)NC(=O)[C@@H](NC(=O)[C@H](CC(C)C)NC(=O)CCC(=O)NCCOCCOCCCCCCCl)[C@@H](C)O)C(=O)N[C@@H](C)C(=O)N[C@@H](Cc2ccc(O)cc2)C(=O)N[C@@H](Cc2c[nH]c3ccccc23)C(=O)N[C@@H](C)C(=O)N[C@@H](CCC(N)=O)C(=O)N[C@@H](CC2CCC2)C(=O)N1 | Expi293 cells transfected with His-Halotag | 304 |

Query block: Can you share its Cell Penetration Score? I mean this compound: CNC(=O)[C@H](C)NC(=O)[C@H](C)NC(=O)[C@H](CO)NC(=O)[C@]1(C)CCCC=CCCCCCC[C@@](C)(NC(=O)[C@H](Cc2ccccc2)NC(=O)[C@@H](NC(=O)[C@H](CC(C)C)NC(=O)CCC(=O)NCCOCCOCCCCCCCl)[C@@H](C)O)C(=O)N[C@@H](CCC(=O)O)C(=O)N[C@@H](Cc2ccc(O)cc2)C(=O)N[C@@H](Cc2c[nH]c3ccccc23)C(=O)N[C@@H](C)C(=O)N[C@@H](CCC(N)=O)C(=O)N[C@@H](CC2CCC2)C(=O)N1 (single isomer, unassigned)
Result block: 757

Query block: // repeat for CC(C)C[C@H](NC(=O)CCC(=O)NCCOCCOCCCCCCCl)C(=O)N[C@H](C(=O)N[C@@H](Cc1ccccc1)C(=O)N[C@]1(C)CCCCCCC=CCCC[C@@](C)(C(=O)N[C@@H](CO)C(=O)N[C@@H](C)C(=O)N[C@@H](C)C(N)=O)NC(=O)[C@H](CC2CCC2)NC(=O)[C@H](CCC(N)=O)NC(=O)[C@H](C)NC(=O)[C@H](Cc2c[nH]c3ccccc23)NC(=O)[C@H](Cc2ccc(O)cc2)NC(=O)[C@H]([C@@H](C)O)NC1=O)[C@@H](C)O and report
Result block: 536

Query block: What do you get for CNC(=O)[C@H](C)NC(=O)[C@H](C)NC(=O)[C@H](CO)NC(=O)[C@]1(C)CCCC=CCCCCCC[C@@](C)(NC(=O)[C@H](Cc2ccccc2)NC(=O)[C@@H](NC(=O)[C@H](CC(C)C)NC(=O)CCC(=O)NCCOCCOCCCCCCCl)[C@@H](C)O)C(=O)N[C@@H]([C@@H](C)O)C(=O)N[C@@H](Cc2ccc(O)cc2)C(=O)N[C@@H](Cc2c[nH]c3ccccc23)C(=O)N[C@@H](C)C(=O)N[C@@H](CCC(N)=O)C(=O)N[C@@H](CC2CCC2)C(=O)N1 ?
Result block: 401
